Reference source for all entries: paper PMC9861757

Below: a set of entries, each annotated with reported Ki.
# target_desc: human CA I (Homo sapiens, UniProt P00915)
# Sequence (P00915 whole entry): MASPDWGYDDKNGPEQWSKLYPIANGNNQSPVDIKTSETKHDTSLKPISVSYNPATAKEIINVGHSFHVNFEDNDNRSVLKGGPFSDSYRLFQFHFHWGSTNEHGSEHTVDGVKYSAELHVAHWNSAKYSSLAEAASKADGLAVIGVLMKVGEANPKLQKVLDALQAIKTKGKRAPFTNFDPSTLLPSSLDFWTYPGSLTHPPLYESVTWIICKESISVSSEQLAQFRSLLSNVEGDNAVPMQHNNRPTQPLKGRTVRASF
# method_summary: stopped-flow CO2 hydrase assay, CA I inhibition
Give a bare numeral; the unit µM is implied.

In the examples that follow, each entry is paired with its recorded Ki.
smiles_notation	Ki, µM
NS(=O)(=O)c1ccc(O)c(NC(=O)N2CCCCC2)c1	8.65
NS(=O)(=O)c1ccc(O)c(NC(=O)N2CCN(CC(=O)NC3CCCCC3)CC2)c1	0.698
CCN1CCN(C(=O)Nc2cc(S(N)(=O)=O)ccc2O)CC1	8.99
NS(=O)(=O)c1ccc(O)c(NC(=O)N2CCOCC2)c1	4
NS(=O)(=O)c1ccc(O)c(NC(=O)N2CCCC2)c1	0.583
NS(=O)(=O)c1ccc(O)c(NC(=O)NCCN2CCOCC2)c1	9.21

Check the records and state Ki for NS(=O)(=O)c1ccc(O)c(NC(=O)NCCN2CCCCC2)c1
0.689
